test: NCI Yeast Anticancer Drug Screen. Data for the rad50 strain (AID 155);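 further: 0% = growth of vehicle-only cultures of the same strain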; conditions: S. cerevisiae rad50 strain growth inhibition; at 5.0 µM (retest, dose inferred, filed as 0.5); stronger effect = higher value
The panel holds about 79,000 compounds, 15% with a hit somewhere; the sample as a whole holds those more often.
Endpoint name: growth inhibition (%)
Provide only the numeric value, understood in %.

Example compounds with recorded growth inhibition:
CC(=O)C1CCC2C1(C)CC1OC13C21C=CC2(CC(O)CCC23C)C2C(=O)OC(=O)C21 (stereo not given); -1
CCCCN(CCCC)CC(O)c1cc(-c2ccc(Cl)cc2)nc2c(-c3ccccc3)cccc12 (stereo not given); -1
CC(C)CC(C(=O)SCC(C)N1CCCC1)c1ccccc1 (stereo not given); 0
CCCCCCCCCCCCCCCC1(OC)C[N+](C)(C)CCO1 (stereo not given); 99
CCCCCCCCCCCC[n+]1cc2ccccc2cc1C; 98
COc1ccccc1C(=O)N(Cc1ccccc1)c1ccc(Cl)c(C(=O)OC(C)C)c1; 28
CCC[CH2][Sn]([CH2]CCC)([O]C(=O)c1cc(F)cc(F)c1)[O][Sn]([CH2]CCC)([CH2]CCC)[O]C(=O)c1cc(F)cc(F)c1; 48
O=Cc1c(I)cc(I)c(O)c1I; 45
COc1ccc2ccccc2c1/C=C/C(=O)c1ccccc1; -3

Now examine the next entry.
Prompt: // query growth inhibition value for entry "FC(F)(F)c1ccccc1NC(=S)SCc1ccc(Cl)cc1"
Response: 3
